The entries below come with measured AUC values attached.
# experimental details: AUC in CD-1 mouse plasma assessed as para-aminosalicylic acid AUC at 10 mg/kg, po administered as single dose and measured up to 5 hrs by HPLC-MS/MS analysis
# Format: ADME, organism-based
# Design: time < 5 hrs, dose 10 mg/kg, route po
# reported conditions: in vivo

compound: COC(=O)c1ccc(N)cc1O
unit: ng·h/mL
AUC: 53
--
compound: CC(C)OC(=O)OC(C)OC(=O)c1ccc(N)cc1O (stereo not given)
unit: ng·h/mL
AUC: 190
--
compound: Nc1ccc(C(=O)O)c(O)c1 [AMINOSALICYLIC ACID]
unit: ng·h/mL
AUC: 380
--
compound: CC(C)(C)C(=O)OCOC(=O)c1ccc(N)cc1O
unit: ng·h/mL
AUC: 460
--
compound: CC(C)OC(=O)OCOC(=O)c1ccc(N)cc1O
unit: ng·h/mL
AUC: 19

###

# experimental details: AUC in CD-1 mouse at 25 mg/kg, po administered as single dose and measured up to 24 hrs by LC-MS/MS analysis
# Format: ADME, organism-based
# Design: dose 25 mg/kg, time < 24 hrs, route po
# reported conditions: in vivo
The entries below come with measured AUC values attached.
measurement label: AUC

molecular string: Cl.Nc1ccc(C(=O)O)c(O)c1F
result: 4000 ng·h/mL
--
molecular string: Cl.Nc1cc(O)c(C(=O)O)c(F)c1
result: 2400 ng·h/mL
--
molecular string: Nc1cc(O)c(C(=O)O)cc1F
result: 10000 ng·h/mL
--
molecular string: CNc1ccc(C(=O)O)c(O)c1
result: 130000 ng·h/mL
--
molecular string: [N-]=[N+]=Nc1ccc(C(=O)O)c(O)c1
result: 900000 ng·h/mL

###

# experimental details: Metabolic stability in CD-1 mouse plasma assessed as parent compound remaining at 1 ug/ml measured after 2 hrs by LC-MS/MS analysis
# Type: ADME, cell-free
# reported conditions: at 1 µg/mL, read-out: Stability

molecule: CC(C)OC(=O)OCOC(=O)c1ccc(N)cc1O
remaining at 2 h, 1 ug/ml / %: 0

molecule: CC(C)OC(=O)OC(C)OC(=O)c1ccc(N)cc1O (centres undefined)
remaining at 2 h, 1 ug/ml / %: 0

molecule: CNc1ccc(C(=O)OC)c(O)c1
remaining at 2 h, 1 ug/ml / %: 90

molecule: CC(C)(C)C(=O)OCOC(=O)c1ccc(N)cc1O
remaining at 2 h, 1 ug/ml / %: 0

molecule: COC(=O)c1ccc(N)cc1O
remaining at 2 h, 1 ug/ml / %: 84

molecule: CCOC(=O)c1ccc(N)cc1O
remaining at 2 h, 1 ug/ml / %: 92

molecule: CC(OC(=O)c1ccc(N)cc1O)OC(=O)C(C)(C)C (centres undefined)
remaining at 2 h, 1 ug/ml / %: 0

molecule: Cc1oc(=O)oc1COC(=O)c1ccc(N)cc1O
remaining at 2 h, 1 ug/ml / %: 0

molecule: CC(C)OC(=O)c1ccc(N)cc1O
remaining at 2 h, 1 ug/ml / %: 94

###

The entries below come with measured remaining at 2 h, 1 ug/ml values attached.
# experimental details: Metabolic stability in human plasma assessed as parent compound remaining at 1 ug/ml measured after 2 hrs by LC-MS/MS analysis
# Format: ADME, cell-free
# reported conditions: at 1 µg/mL, read-out: Stability

molecule: CC(C)OC(=O)c1ccc(N)cc1O
unit: %
remaining at 2 h, 1 ug/ml: 93

molecule: CC(OC(=O)c1ccc(N)cc1O)OC(=O)C(C)(C)C (centres undefined)
unit: %
remaining at 2 h, 1 ug/ml: 0

molecule: CC(C)(C)C(=O)OCOC(=O)c1ccc(N)cc1O
unit: %
remaining at 2 h, 1 ug/ml: 15

molecule: Cc1oc(=O)oc1COC(=O)c1ccc(N)cc1O
unit: %
remaining at 2 h, 1 ug/ml: 0

molecule: CNc1ccc(C(=O)OC)c(O)c1
unit: %
remaining at 2 h, 1 ug/ml: 96

molecule: CC(C)OC(=O)OC(C)OC(=O)c1ccc(N)cc1O (centres undefined)
unit: %
remaining at 2 h, 1 ug/ml: 24

molecule: CCOC(=O)c1ccc(N)cc1O
unit: %
remaining at 2 h, 1 ug/ml: 94

molecule: COC(=O)c1ccc(N)cc1O
unit: %
remaining at 2 h, 1 ug/ml: 94

molecule: CC(C)OC(=O)OCOC(=O)c1ccc(N)cc1O
unit: %
remaining at 2 h, 1 ug/ml: 0

###

# experimental details: Ratio of compound AUC to para-aminosalicylic acid AUC in CD-1 mouse
# Assay type: ADME
# reported conditions: in vivo
Record Y whenever Ratio AUC is at 1 or higher; record N when lower.

molecular string: CNc1ccc(C(=O)O)c(O)c1
discrete label: Y

molecular string: CCOC(=O)c1ccc(N)cc1O
discrete label: N

molecular string: CC(C)OC(=O)c1ccc(N)cc1O
discrete label: N

molecular string: COC(=O)c1ccc(N)cc1O
discrete label: N

molecular string: Nc1cc(O)c(C(=O)O)cc1F
discrete label: Y

molecular string: Cl.Nc1cc(O)c(C(=O)O)c(F)c1
discrete label: Y

molecular string: [N-]=[N+]=Nc1ccc(C(=O)O)c(O)c1
discrete label: Y

molecular string: CCOC(=O)c1cc(F)c(N)cc1O
discrete label: N

molecular string: Cl.Nc1ccc(C(=O)O)c(O)c1F
discrete label: Y

###

# experimental details: AUC in CD-1 mouse at 10 mg/kg, po administered as single dose and measured up to 5 hrs by LC-MS/MS analysis
# Format: ADME, organism-based
# Parameters: dose 10 mg/kg, time < 5 hrs, route po
# reported conditions: in vivo

molecular string: CCOC(=O)c1ccc(N)cc1O
unit: ng·h/mL
AUC at 5 h: 44

molecular string: CNc1ccc(C(=O)OC)c(O)c1
unit: ng·h/mL
AUC at 5 h: 78

molecular string: COC(=O)c1ccc(N)cc1O
unit: ng·h/mL
AUC at 5 h: 1700

molecular string: CC(C)OC(=O)c1ccc(N)cc1O
unit: ng·h/mL
AUC at 5 h: 230

###

# Tested on: Mycobacterium tuberculosis
# experimental details: Antimycobacterial activity against Mycobacterium tuberculosis H37Rv assessed as inhibition of bacterial growth measured after 10 days by microbroth dilution method
# Format: functional
# reported conditions: 240 h, time 10 day
Mark TRUE for MIC90 under 60 µM, FALSE if at or over.

compound: CCOC(=O)c1ccc(N)cc1O
discrete label: TRUE
--
compound: Cl.Nc1cc(O)c(C(=O)O)c(F)c1
discrete label: FALSE
--
compound: Nc1ccc(C(=O)O)c(O)c1 [AMINOSALICYLIC ACID]
discrete label: TRUE
--
compound: COC(=O)c1ccc(N)cc1O
discrete label: FALSE
--
compound: CCOC(=O)c1cc(F)c(N)cc1O
discrete label: FALSE
--
compound: [N-]=[N+]=Nc1ccc(C(=O)O)c(O)c1
discrete label: FALSE
--
compound: Nc1cc(O)c(C(=O)O)cc1F
discrete label: TRUE
--
compound: Cl.Nc1ccc(C(=O)O)c(O)c1F
discrete label: TRUE
--
compound: CNc1ccc(C(=O)O)c(O)c1
discrete label: FALSE
--
compound: CC(C)OC(=O)c1ccc(N)cc1O
discrete label: FALSE
